- System: KB-3-1
- assay.name: Cytotoxic Profiling of Annotated Libraries Using Quantitative High-Throughput Screening (AID 1296008); also: % is scaled to controls: 0 for no effect and ±100 for the full control effect; nearly all actives have a fitted effect of over 60% in size
- measurement.parameters: Five cell lines viability, CellTiter-Glo ATP luminescence, 48-72 h; hits give low values
Inconclusive results are not listed. Active and inactive are the calls of the source. Calls follow the shape of the dose curve; as a rule, active = well fitted inhibition curve with a large enough effect; inconclusive = small, poorly fitted or top-dose-only effect; inactive = flat fitted curve, though single readings scatter.
readout.label: max response

// known answers, use as guide
compound	measured.value
CCCN1CCC(c2cccc(S(C)(=O)=O)c2)CC1	-3.93% (inactive)
C[C@@H]1O[C@@H](O[C@H]2[C@@H]3C=CO[C@@H](O[C@@H]4O[C@H](CO)[C@@H](O)[C@H](O)[C@H]4O)[C@@H]3[C@@]3(CO)O[C@@H]23)[C@H](OC(=O)/C=C/c2ccc(O)c(O)c2)[C@H](O)[C@H]1O	6.2% (inactive)
C=C[C@]1(C)C=C2CCC3C(C)(CCC[C@@]3(C)C(=O)O)C2CC1 (some centres undefined)	8.11% (inactive)

Turning to the following compound.
Fill in: KB-3-1 max response for C[C@@H]1O[C@@H](O[C@@H]2[C@@H](O[C@@H]3O[C@@H](C)[C@H](O[C@@H]4OC[C@H](O)[C@H](O[C@@H]5OC[C@@H](O)[C@H](O)[C@H]5O)[C@H]4O)[C@@H](O[C@@H]4OC[C@](O)(CO)[C@H]4O)[C@H]3O)[C@H](OC(=O)[C@]34CCC(C)(C)C[C@H]3C3=CCC5[C@@]6(C)C[C@H](O)[C@H](O[C@@H]7O[C@H](CO[C@@H]8OC[C@H](O)[C@H](O)[C@H]8O)[C@@H](O)[C@H](O)[C@H]7O)C(C)(C)C6CC[C@@]5(C)[C@]3(C)C[C@H]4O)OC[C@H]2O)[C@H](O)[C@H](O)[C@H]1O (some centres undefined) = 9.59% (inactive)
